Target: Estrogen receptor (Homo sapiens) (UniProt P03372)
Sequence (P03372 whole entry, looked up): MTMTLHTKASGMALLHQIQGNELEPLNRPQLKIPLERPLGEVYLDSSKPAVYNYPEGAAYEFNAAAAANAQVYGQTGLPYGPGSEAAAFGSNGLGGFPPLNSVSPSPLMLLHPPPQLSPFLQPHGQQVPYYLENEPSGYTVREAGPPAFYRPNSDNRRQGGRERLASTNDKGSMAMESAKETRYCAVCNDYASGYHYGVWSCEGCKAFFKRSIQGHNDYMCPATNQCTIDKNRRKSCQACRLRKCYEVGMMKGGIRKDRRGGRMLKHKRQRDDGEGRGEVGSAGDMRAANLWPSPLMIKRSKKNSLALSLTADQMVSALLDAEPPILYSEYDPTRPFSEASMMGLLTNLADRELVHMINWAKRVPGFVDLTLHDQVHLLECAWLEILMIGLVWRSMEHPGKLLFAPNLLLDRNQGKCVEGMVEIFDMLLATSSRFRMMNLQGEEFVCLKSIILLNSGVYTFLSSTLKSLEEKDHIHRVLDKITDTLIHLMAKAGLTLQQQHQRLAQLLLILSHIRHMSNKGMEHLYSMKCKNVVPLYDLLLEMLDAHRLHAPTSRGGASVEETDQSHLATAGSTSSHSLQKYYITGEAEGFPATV
Experiment: ATG_ERa_TRANS: Attagene TRANS-FACTORIAL HepG2 Assay for human Estrogen Receptor alpha (ERa) (AID 2282970)
Settings: HepG2 Attagene TRANS ERa GAL4 reporter, mRNA
Description: ATG_TRANS is a cell-based, multiplexed-readout assay that uses HepG2, a human liver cell line, with measurements taken at 24 hours after chemical dosing in a 24-well plate.ATG_ERa_TRANS is one of 30 assay component(s) measured or calculated from the ATG_TRANS assay. […] This assay endpoint, ATG_ERa_TRANS, was analyzed in the positive analysis fitting direction relative to DMSO as the negative control and baseline of activity. […]
Inconclusive results are not listed. Calls of active or inactive are those of the source. How the source made its calls: active means hit-call score of the fitted dose curve at least 0.9, where 1 is the maximum; inconclusive means response in the unintended direction; inactive means score below 0.9.
Outcome field: choose from active, inactive

Query :: Which outcome did this test record for the compound OCC(O)CC(F)(F)C(F)(F)C(F)(F)C(F)(F)C(F)(F)C(F)(F)C(F)(F)C(F)(F)F (stereo not given) ?
Result :: active

Query :: I would be grateful if you could indicate the recorded call for "C[Si](Cl)(Cl)CCC(F)(F)C(F)(F)C(F)(F)C(F)(F)C(F)(F)C(F)(F)F" .
Result :: inactive

Query :: Which result was noted for this compound in the test: "CO[Si](C)(CCC(F)(F)C(F)(F)C(F)(F)C(F)(F)C(F)(F)C(F)(F)F)OC"
Result :: inactive

Query :: What did this assay record as the result for "CCOC(=O)CC(=O)C(F)(F)C(F)(F)F" ?
Result :: inactive

Query :: Entry "CCCCCC/C=C/CCCCCCCC(=O)O" : call = ?
Result :: inactive
